FYI, the data here is from PubChem BioAssay AID248.

Tested on: L1210 leukemia ip in BDF1 mice, survival T/C
assay.protocol: NCI In Vivo Anticancer Drug Screen. Data for tumor model L1210 Leukemia (intraperitoneal) in B6D2F1 (BDF1) mice
details: endpoint: mean survival time; dose: 200.0 mg/kg/injection; schedule: Q01DX001 (ip); vehicle: carboxymethylcellulose (CMC); higher = longer survival
Protocol: The antitumor activity of compounds was measured in mice bearing transplantable tumors. Survival or tumor size were measured and the results are expressed as the measurement made in the treated group (T) divided by the measurement made in the vehicle treated control group (C). The tumor model used in this assay is L1210 Leukemia (intraperitoneal) in B6D2F1 (BDF1) mice
Toxic doses and inconclusive results are not listed.
Item-by-item account of T/C

{"compound": "CCC(/C=C\\C(C)C1CCC2C3CC=C4CC(O)CCC4(C)C3CCC12C)C(C)C (configuration not stated)", "T/C": "89 % of control"}
{"compound": "O=[N+]([O-])c1ccc(OCn2ncc3ccc([N+](=O)[O-])cc32)cc1", "T/C": "98 % of control"}
{"compound": "COc1ccc([N+](=O)[O-])cc1NC(=O)C(Cl)Cl", "T/C": "100 % of control"}
{"compound": "Nc1nc(SCc2ccccc2)c2ncn(C3CCCC3)c2n1", "T/C": "95 % of control"}
{"compound": "CCOC(=O)Nc1nn[nH]n1", "T/C": "101 % of control"}
{"compound": "CC(=S)Oc1cccc(C)c1", "T/C": "96 % of control"}
{"compound": "O=[N+]([O-])c1ccccc1Nc1ccccc1", "T/C": "89 % of control"}
{"compound": "Nn1c(=S)[nH]n2cnnc12", "T/C": "106 % of control"}
{"compound": "NC(=O)C1(Nc2ccc(-c3ccc(NC4(C(N)=O)CCCC4)cc3)cc2)CCCC1", "T/C": "93 % of control"}
{"compound": "CC(C)(C)COC(=O)c1ccccc1", "T/C": "91 % of control"}
{"compound": "Nc1ccc2c(c1)Cc1c-2cc(I)c(O)c1I", "T/C": "101 % of control"}
{"compound": "CSc1nc(N)c(N=Nc2ccc(S(=O)(=O)Nc3cc(C)nc(C)n3)cc2)c(=O)[nH]1", "T/C": "95 % of control"}

====

System: L1210 leukemia ip in BDF1 mice, survival T/C
assay.protocol: NCI In Vivo Anticancer Drug Screen. Data for tumor model L1210 Leukemia (intraperitoneal) in B6D2F1 (BDF1) mice
details: endpoint: mean survival time; dose: 25.0 mg/kg/injection; schedule: Q01DX009 (ip); vehicle: Klucel (hydroxypropylcellulose) (HPC); higher = longer survival
Toxic doses and inconclusive results are not listed.
Item-by-item account of T/C

{"compound": "ClC1C2c3ccccc3C(C1Cl)[n+]1ccccc12 (configuration not stated)", "T/C": "94 % of control"}
{"compound": "NNC(=O)c1c[nH]c2ccccc2c1=O", "T/C": "90 % of control"}
{"compound": "O=C(O)C(Cc1cnc[nH]1)Nc1nc(NC(Cc2cnc[nH]2)C(=O)O)[nH]c(=O)n1 (configuration not stated)", "T/C": "115 % of control"}
{"compound": "CCOC(=N)N1Cc2ccccc2CCc2ccccc2C1", "T/C": "101 % of control"}
{"compound": "CCCCCCCCOC(=O)Nc1ccccc1", "T/C": "100 % of control"}
{"compound": "O=c1oc(-c2ccccc2)nc2c(Cl)ccc(Cl)c12", "T/C": "110 % of control"}
{"compound": "CC(=O)Nc1ccc([I+]c2ccc([N+](=O)[O-])cc2)cc1", "T/C": "104 % of control"}

====

System: L1210 leukemia ip in BDF1 mice, survival T/C
assay.protocol: NCI In Vivo Anticancer Drug Screen. Data for tumor model L1210 Leukemia (intraperitoneal) in B6D2F1 (BDF1) mice
details: endpoint: mean survival time; dose: 100.0 mg/kg/injection; schedule: Q04DX003 (ip); vehicle: other; higher = longer survival
Inconclusive results and toxic doses are left out.
Item-by-item account of T/C

{"compound": "Cc1ccc(N=Nc2cc(C)c(N)cc2N)c(S(=O)(=O)O)c1", "target.or.test.system": "L1210 leukemia ip in BDF1 mice, survival T/C", "T/C": "96 % of control"}
{"compound": "Nc1nc(-c2cccnc2)nc2c1cnn2-c1ccccc1", "target.or.test.system": "L1210 leukemia ip in BDF1 mice, survival T/C", "T/C": "97 % of control"}
{"compound": "O=C(OC1c2cccc3cccc(c23)C1O)c1ccccc1 (configuration not stated)", "target.or.test.system": "L1210 leukemia ip in BDF1 mice, survival T/C", "T/C": "95 % of control"}
{"compound": "COc1cc(/C=C2/CCCCC2=O)ccc1O", "target.or.test.system": "L1210 leukemia ip in BDF1 mice, survival T/C", "T/C": "93 % of control"}
{"compound": "CCOC(=O)C(Cc1ccc(OCc2ccccc2)c(OCc2ccccc2)c1)(NC(C)=O)C(=O)OCC", "target.or.test.system": "L1210 leukemia ip in BDF1 mice, survival T/C", "T/C": "102 % of control"}
{"compound": "CCCCCCCCCCCSSCCCCCCCCCCC", "target.or.test.system": "L1210 leukemia ip in BDF1 mice, survival T/C", "T/C": "96 % of control"}
{"compound": "CC(C)(O)c1cnc(OCc2ccccc2)nc1OCc1ccccc1", "target.or.test.system": "L1210 leukemia ip in BDF1 mice, survival T/C", "T/C": "101 % of control"}

====

System: L1210 leukemia ip in BDF1 mice, survival T/C
assay.protocol: NCI In Vivo Anticancer Drug Screen. Data for tumor model L1210 Leukemia (intraperitoneal) in B6D2F1 (BDF1) mice
details: endpoint: mean survival time; dose: 200.0 mg/kg/injection; schedule: Q04DX002 (ip); vehicle: saline with Tween-80; higher = longer survival
Experimental: The antitumor activity of compounds was measured in mice bearing transplantable tumors. Survival or tumor size were measured and the results are expressed as the measurement made in the treated group (T) divided by the measurement made in the vehicle treated control group (C). The tumor model used in this assay is L1210 Leukemia (intraperitoneal) in B6D2F1 (BDF1) mice
Toxic doses and inconclusive results are not listed.
Item-by-item account of T/C

{"compound": "CC(=O)Nc1ccc(OC(=O)Nc2cccc(Cl)c2C)cc1", "T/C": "86 % of control"}
{"compound": "CCC[CH2][Ge]([CH2]CCC)[CH2]CCC.CCC[CH2][Ge]([CH3])[CH2]CCC", "T/C": "89 % of control"}
{"compound": "Nc1ccn(CC(=O)c2cc3ccccc3[nH]2)c(=O)n1", "T/C": "97 % of control"}
{"compound": "COC(=N)c1ccc(O)cc1", "T/C": "98 % of control"}
{"compound": "Cc1ccc(/C(C#N)=C/C2CCC(N(C)C)CC2)cc1 (stereo unspecified)", "T/C": "93 % of control"}
{"compound": "Br/C=C/c1ccccc1", "T/C": "97 % of control"}

====

Tested on: L1210 leukemia ip in BDF1 mice, survival T/C
assay.protocol: NCI In Vivo Anticancer Drug Screen. Data for tumor model L1210 Leukemia (intraperitoneal) in B6D2F1 (BDF1) mice
details: endpoint: mean survival time; dose: 200.0 mg/kg/injection; schedule: Q04DX003 (ip); vehicle: saline; higher = longer survival
Inconclusive results and toxic doses are left out.
Item-by-item account of T/C
measured.parameter: T/C

{"compound": "CCOC(=O)N(C1CCCCC1)P(=O)(OCC)OCC", "measured.parameter": "T/C", "measurement": "100 % of control"}
{"compound": "C(=C1/CC2CCC1C2)/c1ccccc1 (configuration not stated)", "measured.parameter": "T/C", "measurement": "93 % of control"}
{"compound": "O=S(=O)(O)c1ccc(N=Nc2c(O)cc(O)cc2O)cc1", "measured.parameter": "T/C", "measurement": "97 % of control"}
{"compound": "Cc1c(Cl)cccc1NC(=O)c1ccccc1Cl", "measured.parameter": "T/C", "measurement": "108 % of control"}
{"compound": "Cc1ccc2nc(-c3ccc(F)cc3)cc(C(=O)O)c2c1", "measured.parameter": "T/C", "measurement": "89 % of control"}
{"compound": "NNC(=O)Cc1ccccc1", "measured.parameter": "T/C", "measurement": "89 % of control"}
{"compound": "CC(C)(Oc1ccc(Cl)cc1)C(=O)O (tested in a mixture with another compound)", "measured.parameter": "T/C", "measurement": "91 % of control"}
{"compound": "CC(C)C(C(=O)O)(c1ccccc1)c1ccccc1", "measured.parameter": "T/C", "measurement": "103 % of control"}
{"compound": "CC1CCCC(C[N+](C)(C)C)C1=O (configuration not stated)", "measured.parameter": "T/C", "measurement": "101 % of control"}
{"compound": "CCOC(=O)NC(C)(C)CN(C(=O)OCC)C(C)(C)CO", "measured.parameter": "T/C", "measurement": "104 % of control"}
{"compound": "CC(=O)N(C)c1ccc(NC(=O)Nc2ccc([N+](=O)[O-])cc2Cl)cc1", "measured.parameter": "T/C", "measurement": "95 % of control"}
{"compound": "CC(=O)c1ccc2c(c1)Cc1ccccc1-2", "measured.parameter": "T/C", "measurement": "96 % of control"}
